TEST_TARGET: IRAK-4 (Homo sapiens, UniProt Q9NWZ3)
Sequence (Q9NWZ3 whole entry): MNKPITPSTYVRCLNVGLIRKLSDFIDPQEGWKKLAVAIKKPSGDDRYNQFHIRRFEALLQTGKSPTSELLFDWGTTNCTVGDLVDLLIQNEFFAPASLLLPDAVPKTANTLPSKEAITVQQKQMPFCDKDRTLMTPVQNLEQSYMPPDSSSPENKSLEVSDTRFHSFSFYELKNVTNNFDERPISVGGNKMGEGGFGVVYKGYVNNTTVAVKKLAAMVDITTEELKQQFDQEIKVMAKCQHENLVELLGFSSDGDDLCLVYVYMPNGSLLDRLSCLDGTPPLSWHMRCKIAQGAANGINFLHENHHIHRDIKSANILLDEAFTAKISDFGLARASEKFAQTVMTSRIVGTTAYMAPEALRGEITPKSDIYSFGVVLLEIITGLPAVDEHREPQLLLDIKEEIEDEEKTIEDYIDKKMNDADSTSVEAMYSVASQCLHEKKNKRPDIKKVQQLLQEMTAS
PROTOCOL_SUMMARY: IRAK-4 ELISA, PBMC degradation
Format: cell-based
Parameters: endogenous in cells; host or cells: PBMC
MEASUREMENT_PARAMETERS: treated overnight
Protocol: Reagents: Human IRAK-4 Matched Antibody Pair Kit (Abcam ab218182) and ELISA Accessory Pack (Abcam ab210905). Cell Treatment and Lysis: 1. OCI-Ly10: 200,000 cells are seeded at 1×10^6/ml in 96-well U-bottom plates 200 ul per well, treated with compound the same day. Incubate overnight. 2. PBMC: 800,000 cells are seeded at 2×10^6/ml in 96-well U-bottom deep-well plates, 400 ul per well, treated with compound the same day. […] Cell lysate is collected and analyzed by ELISA for IRAK-4 levels.

COMPOUND: O=C1CCC(N2C(=O)c3ccc(N4CC(F)(CN5CCC(n6cc7cc(NC(=O)c8cnn9cc(Cl)cnc89)c(OCC8CC8)cc7n6)CC5)C4)cc3C2=O)C(=O)N1 (centres unmarked) [Example 255]
TEST_TARGET: IRAK-4 (Homo sapiens, UniProt Q9NWZ3)
Dmax: ≥ 90%

COMPOUND: CCN(C1CN(c2cccc3c2n(C)c(=O)n3C2CCC(=O)NC2=O)C1)[C@H]1CC[C@H](n2cc3cc(NC(=O)c4cnn5cccnc45)c(OC(C)C)cc3n2)CC1 (some centres unmarked) [Example 388]
TEST_TARGET: IRAK-4 (Homo sapiens, UniProt Q9NWZ3)
Dmax: ≥ 90%

COMPOUND: CC(C)Oc1cc2c(cc1NC(=O)c1cnn3cccnc13)CN(C1CCC(N(CC(F)(F)F)C3CN(c4ccc5c(c4)C(=O)N(C4CCC(=O)NC4=O)C5=O)C3)CC1)C2=O (centres unmarked) [Example 332]
TEST_TARGET: IRAK-4 (Homo sapiens, UniProt Q9NWZ3)
Dmax: ≥ 90%

COMPOUND: C[C@@H](Oc1cc2nn(C3CCN(CC4(F)CN(c5ccc6c(c5)C(=O)N(C5CCC(=O)NC5=O)C6=O)C4)CC3)cc2cc1NC(=O)c1cnn2cccnc12)C1CC1 (some centres unmarked) [Example 223]
TEST_TARGET: IRAK-4 (Homo sapiens, UniProt Q9NWZ3)
Dmax: 70 to 80%

COMPOUND: O=C1CCC(NC(=O)c2ccc(O[C@H]3C[C@H](N[C@H]4CC[C@H](n5cc6cc(NC(=O)c7cnn8cccnc78)c(OCC7CC7)cc6n5)CC4)C3)cc2F)C(=O)N1 (some centres unmarked) [Example 376]
TEST_TARGET: IRAK-4 (Homo sapiens, UniProt Q9NWZ3)
Dmax: ≥ 90%

COMPOUND: O=C1CCC(N2C(=O)c3ccc(N4CC[C@H](O[C@H]5CC[C@@H](n6cc7cc(NC(=O)c8cnn9cccnc89)c(OCC8CC8)cc7n6)CC5)C4)cc3C2=O)C(=O)N1 (some centres unmarked) [Example 428]
TEST_TARGET: IRAK-4 (Homo sapiens, UniProt Q9NWZ3)
Dmax: ≥ 90%

COMPOUND: O=C1CCC(N2Cc3cc(N4CC(O[C@H]5CC[C@H](n6cc7cc(NC(=O)c8cnn9cccnc89)c(OCC8CC8)cc7n6)CC5)C4)ccc3C2=O)C(=O)N1 (some centres unmarked) [Example 423]
TEST_TARGET: IRAK-4 (Homo sapiens, UniProt Q9NWZ3)
Dmax: ≥ 90%

COMPOUND: CC(C)Oc1cc2c(cc1NC(=O)c1cnn3cccnc13)CN([C@H]1CC[C@H](CN3CCC(c4ccc5c(c4)C(=O)N(C4CCC(=O)NC4=O)C5=O)CC3)CC1)C2=O (some centres unmarked) [Example 432]
TEST_TARGET: IRAK-4 (Homo sapiens, UniProt Q9NWZ3)
Dmax: ≥ 90%

COMPOUND: O=C1CCC(N2C(=O)c3ccc(N4CC5(CCCN(C6CCC(n7cc8cc(NC(=O)c9cnn%10cccnc9%10)c(OCC9CC9)cc8n7)CC6)C5)C4)cc3C2=O)C(=O)N1 (centres unmarked) [Example 417]
TEST_TARGET: IRAK-4 (Homo sapiens, UniProt Q9NWZ3)
Dmax: ≥ 90%

COMPOUND: O=C1CCC(N2C(=O)c3cc(F)c(N4CC(CN5CCC(n6cc7cc(NC(=O)c8cnn9cccnc89)c(OCC8CC8)cc7n6)CC5)C4)cc3C2=O)C(=O)N1 (centres unmarked) [Example 221]
TEST_TARGET: IRAK-4 (Homo sapiens, UniProt Q9NWZ3)
Dmax: < 70%

COMPOUND: O=C1CCC(N2Cc3cc(N4CC(CN5CCC(n6cc7cc(NC(=O)c8cnn9cccnc89)c(OCC8CC8)cc7n6)CC5)C4)ccc3C2=O)C(=O)N1 (centres unmarked) [Example 134]
TEST_TARGET: IRAK-4 (Homo sapiens, UniProt Q9NWZ3)
Dmax: ≥ 90%

* * *

TEST_TARGET: IRAK-4 (Homo sapiens)
PROTOCOL_SUMMARY: IRAK-4 ELISA, PBMC degradation
Format: cell-based
Set-up: endogenous in cells; host or cells: PBMC
MEASUREMENT_PARAMETERS: treated overnight
DC50 listing for selected molecules.

MOLECULE: O=C1CCC(N2Cc3cc(N4CC(O[C@H]5CC[C@H](n6cc7cc(NC(=O)c8cnn9cccnc89)c(OCC8CC8)cc7n6)CC5)C4)ccc3C2=O)C(=O)N1 (some centres unmarked) [Example 423]
DC50: 1 to 5 nM
//
MOLECULE: O=C1CCC(NC(=O)c2cc(N3CC(CN4CCC(n5cc6cc(NC(=O)c7cnn8cccnc78)c(OCC7CC7)cc6n5)CC4)C3)ccc2F)C(=O)N1 (centres unmarked) [Example 306]
DC50: ≥ 10 nM
//
MOLECULE: O=C1CCC(N2C(=O)c3ccc(N4CC5(CCCN(C6CCC(n7cc8cc(NC(=O)c9cnn%10cccnc9%10)c(OCC9CC9)cc8n7)CC6)C5)C4)cc3C2=O)C(=O)N1 (centres unmarked) [Example 417]
DC50: < 1 nM
//
MOLECULE: O=C1CCC(N2Cc3cc(N4CC(F)(CN5CCC(n6cc7cc(NC(=O)c8cnn9cccnc89)c(OC8CCC8)cc7n6)CC5)C4)ccc3C2=O)C(=O)N1 (centres unmarked) [Example 216]
DC50: < 1 nM
//
MOLECULE: CC(C)Oc1cc2nn([C@H]3CC[C@H](N(C)C4CN(c5ccc6c(c5)C(=O)N(C5CCC(=O)NC5=O)C6=O)C4)CC3)cc2cc1NC(=O)c1cnn2cccnc12 (some centres unmarked) [Example 318]
DC50: < 1 nM
//
MOLECULE: CC(C)Oc1cc2c(cc1NC(=O)c1cnn3cccnc13)CN([C@H]1CC[C@H](CN3CCN(c4ccc5c(c4)C(=O)N(C4CCC(=O)NC4=O)C5=O)CC3)CC1)C2=O (some centres unmarked) [Example 431]
DC50: 1 to 5 nM
//
MOLECULE: CCN(C1CN(c2ccc(C(=O)NC3CCC(=O)NC3=O)c(F)c2)C1)[C@H]1CC[C@H](n2cc3cc(NC(=O)c4cnn5cccnc45)c(OCC4CC4)cc3n2)CC1 (some centres unmarked) [Example 369]
DC50: 1 to 5 nM
//
MOLECULE: O=C1CCC(N2C(=O)c3ccc(N4CC(N5CCC(N6Cc7cc(NC(=O)c8cnn9cccnc89)c(N8CCOCC8)nc7C6=O)CC5)C4)cc3C2=O)C(=O)N1 (centres unmarked) [Example 407]
DC50: < 1 nM
//
MOLECULE: CC1(N2CCC(n3cc4cc(NC(=O)c5cnn6cccnc56)c(OCC5CC5)cc4n3)CC2)CN(c2ccc3c(c2)C(=O)N(C2CCC(=O)NC2=O)C3=O)C1 (centres unmarked) [Example 228]
DC50: 1 to 5 nM
//
MOLECULE: CCN(C1CN(c2cccc3c2n(C)c(=O)n3C2CCC(=O)NC2=O)C1)[C@H]1CC[C@H](n2cc3cc(NC(=O)c4cnn5cccnc45)c(OC(C)C)cc3n2)CC1 (some centres unmarked) [Example 388]
DC50: < 1 nM
//
MOLECULE: CN(C1CN(c2ccc(C(=O)NC3CCC(=O)NC3=O)c(F)c2)C1)[C@H]1CC[C@H](n2cc3cc(NC(=O)c4cnn5cccnc45)c(OCC4CC4)cc3n2)CC1 (some centres unmarked) [Example 368]
DC50: 1 to 5 nM

* * *

TEST_TARGET: IRAK-4 (Homo sapiens, UniProt Q9NWZ3)
PROTOCOL_SUMMARY: IRAK-4 ELISA, PBMC degradation
Assay type: cell-based
Set-up: endogenous in cells; host or cells: PBMC
MEASUREMENT_PARAMETERS: treated overnight
Dmax listing for selected compounds.
TEST_READOUT: Dmax

COMPOUND: O=C1CCC(N2Cc3cc(N4CC(N5CCC(n6cc7cc(NC(=O)c8cnn9cccnc89)c(OCC8CC8)cc7n6)CC5)C4)ccc3C2=O)C(=O)N1 (stereo not drawn) [Example 283]
RESULT: ≥ 90%
//
COMPOUND: CC(C)Oc1cc2c(cc1NC(=O)c1cnn3cccnc13)CN(C1CCN(CCOc3ccc4c(c3)CN(C3CCC(=O)NC3=O)C4=O)CC1)C2=O (stereo not drawn) [Example 3]
RESULT: 80 to 90%
//
COMPOUND: O=C1CCC(N2C(=O)c3ccc(N4CCC(COCCN5Cc6cc(NC(=O)c7cnn8cccnc78)c(N7CCOCC7)cc6C5=O)CC4)cc3C2=O)C(=O)N1 (stereo not drawn) [Example 95]
RESULT: ≥ 90%
